Cited source: PubChem BioAssay (NCI)

Tested on: PC-3 prostate
assayMethodText: NCI tumour cell line growth inhibition, 48 h
Entry flag: YES if TGI reaches 20 µM; NO if it does not.

These solved cases illustrate the format of a correct answer.
>>> answerlabel("O=S1(=O)CS(=O)(=O)OCCO1")
"YES"
>>> answerlabel("O=C(NCCN1CCCCC1)c1ccc(I)cc1")
"YES"
>>> answerlabel("CC(C)(C)OC(=O)c1ccc(NCC2=CC(=O)C=CC2=O)cc1")
"YES"

Asked: Can CCCCCCCCCCCCCCCC(=O)OCC1OC(OC)C2NP(=O)(N(CCCl)CCCl)OC1C2O (stereo unspecified) be said to have TGI at or above 20 µM?
Given back: NO

Asked: Evaluate "C(=N\OCCc1ccccc1)/c1cccnc1" : TGI at minimum 20 µM?
Given back: YES

Asked: Is reported TGI greater than or equal to 20 µM here: C[C@]1(Cn2ccnn2)C(C(=O)O)N2C(=O)CC2S1(=O)=O (stereo partly specified)
Given back: YES

Asked: // inclusive: TGI at least 20 µM? input: Nc1nc2ccc(OCC(O)CN3CCCCC3)cc2[n+]([O-])n1 (stereo unspecified)
Given back: YES

Asked: Reported TGI reaches at least 20 µM for C[C@]12CC[C@H]3[C@@H](C[C@@H]4SC(Nc5ccccc5)=N[C@@]45CC(O)CC[C@]35C)[C@@H]1CCC2O (stereo partly specified) ?
Given back: NO

Asked: Please tell me: is the molecule "O=C(CCCl)NNC1=NCCCCN1" at or over 20 µM in terms of TGI?
Given back: YES

Asked: TGI >= 20 µM for "C/C=C/[C@H]1O[C@@H]2C(=C[C@H]1O)C(=O)O[C@H]2C" ?
Given back: YES

Asked: State whether the measured TGI reaches 20 µM, counting equality as reaching it, for "O=[N+]([O-])C(=C1Nc2ccccc2N1)/C(Cl)=C(/Cl)N1CCOCC1"
Given back: YES

---

Tested on: NCI-H460 lung
assayMethodText: NCI tumour cell line growth inhibition, 48 h
This section presents compounds with their documented TGI values.

Answered cases to consult:
>>> observedvalue("NC(=O)/C=c1/c2ccccc2n2nc3ccccc3c12")
"> 100 µM"
>>> observedvalue("NCCCCC(=O)c1cccnc1")
"> 100 µM"
>>> observedvalue("C=C1C(=O)OC2CC(=C)C3CC=C(C)C3CC12 (stereo unspecified)")
"> 100 µM"
>>> observedvalue("OCCNCCCOc1ccc2ncnc(Nc3ccc(Oc4cccc(C(F)(F)F)c4)c(Cl)c3)c2c1")
"3.31 µM"

Asked: Look at this compound and give its reported TGI. Cc1cc(C(=O)NC(CCC(=O)O)C(=O)O)sc1CCC1CNc2nc(N)[nH]c(=O)c2C1 (stereo unspecified)
Given back: > 100 µM

Asked: Any idea what its TGI is? The compound is O=C(CC1(O)C(=O)Nc2ccccc21)c1ccc(O)cc1 (stereo unspecified)
Given back: > 100 µM

---

System: EKVX NSCLC
assayMethodText: NCI tumour cell line growth inhibition, 48 h
Returns fulfilled if the recorded TGI is greater than or equal to 20 µM, and not fulfilled otherwise.

See these solved cases before continuing.
>>> answerlabel("CCCCNC(=O)Oc1ccc(/C(=C(/C)Cc2ccc(OC)cc2)c2ccc(OCCN3CCCC3)cc2)cc1")
"not fulfilled"
>>> answerlabel("O=S(=O)(c1ccccc1)n1cc(C[P+](c2ccccc2)(c2ccccc2)c2ccccc2)c2ccccc21")
"not fulfilled"
>>> answerlabel("CN(C)CC(C(=O)Cc1ccccc1)c1ccccc1 (centres undefined)")
"fulfilled"

Asked: Is the recorded value of TGI equal to or greater than 20 µM for this molecule? C=C1C2CC(OC(C)=O)C3(C)C(c4ccoc4)OC(=O)[C@@H](O)[C@]13OC1C[C@H](OC(C)=O)C(C)(C)[C@H](CC(=O)OC)[C@]12C (some centres undefined)
Given back: fulfilled

Asked: Quick check: does "CCOC(=N)CC(=O)Nc1cccc(Cl)c1" have TGI greater than or equal to 20 µM?
Given back: fulfilled

Asked: Is reported TGI greater than or equal to 20 µM here: COC(=O)[C@@H](Cc1ccccc1)N1O[C@]12CCCC[C@@H]2NC(=O)OC(C)(C)C (some centres undefined)
Given back: fulfilled

Asked: Could you tell me if the measured TGI of "CC1=C(C(=O)Nc2ccc([N+](=O)[O-])cc2)C(c2ccc3c(c2)OCO3)C(C(=O)Nc2ccc([N+](=O)[O-])cc2)=C(C)N1" reaches 20 µM or more?
Given back: fulfilled

Asked: Form field: TGI at least 20 µM? Entry: "COc1ccc(/C=C/C(=O)CC(=O)/C=C/c2ccc(OC)cc2)cc1"
Given back: fulfilled

Asked: Hi, just wondering whether "COC(=O)c1c[nH]c2c1-c1cc(C(=O)OCc3ccccc3)n(S(=O)(=O)c3ccc(C)cc3)c1C(=O)C2=O" shows TGI of 20 µM or higher.
Given back: not fulfilled
